For each record, write down the corresponding viability at 24 h, 50 ug/ml.
- Method notes: Cytotoxicity against human Hep2 cells assessed as cell survival at 50 ug/ml after 24 hrs by trypan blue exclusion test (reference value: 87 to 94%)
- Format: cell-based, HEp-2
- Experimental setup: read-out: Survival
Numbers only, in %.

Worked cases, viability at 24 h, 50 ug/ml given:
{"Smiles structure": "CCCCC/C(C)=N/N=C1\\SCC(=O)N1Cc1ccc([N+](=O)[O-])cc1", "Readout value": 0}
{"Smiles structure": "C/C(CC(C)C)=N\\N=C1/SCC(=O)N1Cc1ccc([N+](=O)[O-])cc1", "Readout value": 0}

Hi, could you look up viability at 24 h, 50 ug/ml for each item in my list?
1. C/C(CC(C)C)=N\N=C1/SCC(=O)N1Cc1cccc2ccccc12
2. CC(C)=N/N=C1\SCC(=O)N1CN1C(=O)c2ccccc2C1=O
3. C/C(CC(C)C)=N\N=C1/SCC(=O)N1CN1C(=O)c2ccccc2C1=O
4. O=C1CS/C(=N\N=C2CCCC2)N1Cc1ccc([N+](=O)[O-])cc1

Response line:
[73.6, 0, 79, 0]

====

- Method notes: Cytotoxicity against human Hep2 cells assessed as cell survival at 0.05 ug/ml after 24 hrs by trypan blue exclusion test (reference value: 87 to 94%)
- Assay type: cell-based, HEp-2
- Experimental setup: read-out: Survival
Measure: viability at 24 h, 0.05 ug/ml (%)
Give bare numbers, in %.

{"Smiles structure": "CCCCC/C(C)=N/N=C1\\SCC(=O)N1Cc1ccc([N+](=O)[O-])cc1", "viability at 24 h, 0.05 ug/ml (%)": 95.4}
{"Smiles structure": "C/C(CC(C)C)=N\\N=C1/SCC(=O)N1Cc1cccc2ccccc12", "viability at 24 h, 0.05 ug/ml (%)": 93.2}
{"Smiles structure": "O=C1CS/C(=N\\N=C2CCCC2)N1Cc1ccc([N+](=O)[O-])cc1", "viability at 24 h, 0.05 ug/ml (%)": 95}
{"Smiles structure": "C/C(CC(C)C)=N\\N=C1/SCC(=O)N1CN1C(=O)c2ccccc2C1=O", "viability at 24 h, 0.05 ug/ml (%)": 94}
{"Smiles structure": "C/C(CC(C)C)=N\\N=C1/SCC(=O)N1Cc1ccc([N+](=O)[O-])cc1", "viability at 24 h, 0.05 ug/ml (%)": 93}

Proceed to the following item.
Prompt line: // fetch viability at 24 h, 0.05 ug/ml given entry CC(C)=N/N=C1\SCC(=O)N1CN1C(=O)c2ccccc2C1=O
Response line: 86

====

- Test system: Candida tropicalis
- Method notes: Antifungal activity against Candida tropicalis clinical isolate after 24 hrs by sabouraud dextrose broth based microdilution method
- Format: functional
Measure: MIC (µg/mL)
Answers are plain numbers, in µg/mL.

Sample answers from the record:
{"Compound": "CCCCC/C(C)=N/N=C1\\SCC(=O)N1CN1C(=O)c2ccccc2C1=O", "MIC / µg/mL": 128}
{"Compound": "C/C(=N\\N=C1/SCC(=O)N1Cc1cccc2ccccc12)c1ccco1", "MIC / µg/mL": 128}
{"Compound": "O=C1CS/C(=N\\N=C\\c2ccc3c(c2)OCO3)N1Cc1ccc([N+](=O)[O-])cc1", "MIC / µg/mL": 16}
{"Compound": "O=C1c2ccccc2C(=O)N1CN1C(=O)CS/C1=N\\N=C\\c1ccco1", "MIC / µg/mL": 8}
{"Compound": "CCCCC/C(C)=N/N=C1\\SCC(=O)N1Cc1cccc2ccccc12", "MIC / µg/mL": 64}

Give MIC for all compounds that follow.
1. CCCC/C(CC)=N/N=C1\SCC(=O)N1Cc1ccc([N+](=O)[O-])cc1
2. O=C1CS/C(=N\N=C2CCCCC2)N1Cc1ccc([N+](=O)[O-])cc1
3. C/C(CC(C)C)=N\N=C1/SCC(=O)N1Cc1cccc2ccccc12
4. C=CCC/C(C)=N/N=C1\SCC(=O)N1CN1C(=O)c2ccccc2C1=O
5. C=CCC/C(C)=N/N=C1\SCC(=O)N1Cc1cccc2ccccc12

Response line:
1. 2
2. 8
3. 64
4. 4
5. 8

Each recorded value in this set is attributed to ChEMBL document CHEMBL3739379.
